Test system: Crude diglycosidase
EXPERIMENTAL PROTOCOL: Examination of pH in the conversion into isoflavone aglycons by diglycosidase using soybean materials
Format: biochemical, Penicillium multicolor IAM7153
Design: concentration or dose not given beside the values
RECORDED CONDITIONS: pH5.4; heat treatment of enzyme: no; reaction time 0 h
READOUT NAME: Decomposition efficiency of genistin family in defatted soybean (%)

O=c1c(-c2ccc(O)cc2)coc2cc(O[C@@H]3O[C@H](CO)[C@@H](O)[C@H](O)[C@H]3O)cc(O)c12 ... 40.5

I. O=c1c(-c2ccc(O)cc2)coc2cc(O)cc(O)c12
II. O=C(O)CC(=O)OC[C@H]1O[C@@H](Oc2cc(O)c3c(=O)c(-c4ccc(O)cc4)coc3c2)[C@H](O)[C@@H](O)[C@@H]1O
III. CC(=O)OC[C@H]1O[C@@H](Oc2cc(O)c3c(=O)c(-c4ccc(O)cc4)coc3c2)[C@H](O)[C@@H](O)[C@@H]1O
Lookup: Sort ascending by Decomposition efficiency of genistin family in defatted soybean. // respond by listing labels in the order requested
Found: III, I, II
